# study-system: T1, canine FcRn (UniProtKB-E2ROL6 [FcRn] and UniProtKB-E2RN10 [canine beta-2-microglobulin]) (canine)
# T1 construct: Soluble analyte injected in SPR
# assay-comment: SPR Biacore 8K, pH 5.5, Fc captured on BSA via SASA tag, FcRn 100-800 nM
readout-kind: koff (s⁻¹)
Give a bare numeral; the unit s⁻¹ is implied.

binder	reading
canine IgG.B Fc (CH2-CH3) YTE variant (L252Y/A254T/T256E) (Fc fusion) APEMLGGPSVFIFPPKPKDTLYITREPEVTCVVVDLDPEDPEVQISWFVDGKQMQTAKTQPREEQFNGTYRVVSVLPIGHQDWLKGKQFTCKVNNKALPSPIERTISKARGQAHQPSVYVLPPSREELSKNTVSLTCLIKDFFPPDIDVEWQSNGQQEPESKYRTTPPQLDEDGSYFLYSKLSVDKSRWQRGDTFICAVMHEALHNHYTQESLSHSPGK	0.046
canine IgG.B Fc (CH2-CH3) variant N434W (Fc fusion) APEMLGGPSVFIFPPKPKDTLLIARTPEVTCVVVDLDPEDPEVQISWFVDGKQMQTAKTQPREEQFNGTYRVVSVLPIGHQDWLKGKQFTCKVNNKALPSPIERTISKARGQAHQPSVYVLPPSREELSKNTVSLTCLIKDFFPPDIDVEWQSNGQQEPESKYRTTPPQLDEDGSYFLYSKLSVDKSRWQRGDTFICAVMHEALHWHYTQESLSHSPGK	0.045

Okay, now this binder:
Req: Suppose we examine the binder canine IgG.B Fc (CH2-CH3) variant N434Y (Fc fusion) APEMLGGPSVFIFPPKPKDTLLIARTPEVTCVVVDLDPEDPEVQISWFVDGKQMQTAKTQPREEQFNGTYRVVSVLPIGHQDWLKGKQFTCKVNNKALPSPIERTISKARGQAHQPSVYVLPPSREELSKNTVSLTCLIKDFFPPDIDVEWQSNGQQEPESKYRTTPPQLDEDGSYFLYSKLSVDKSRWQRGDTFICAVMHEALHYHYTQESLSHSPGK ; what koff value has been reported?
Resp: 0.0151
